Target entity: T1, human GPC3-His protein (human, UniProt P51654 25-559)
T1 construct: Bought protein; also called human GPC3 protein; not shown: His tag
Test method notes: ELISA, coated human GPC3, antibody 0.1 nM;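 note: antigen coated on 96-well plates at 1 µg/mL, antibody bound 2 h at 37 °C, detected with HRP-labeled secondary antibody and TMB substrate, acid-stopped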
Readout type: OD450 nm

1. F1.2.14 human-murine chimeric antibody (antibody, human IgG1, kappa, V domains shown) VH: RVQLQQSGAELVKPGASVRMSCKASGYTFTAYSIEWMKQNLGKSLEWIGNFRPYNDDTKYNENFKGRATLTVEKSSATVYLELSRLTSDDSAVYYCARSGPTDYFDYWGQGTTLIVSS VL: DIQMTQSPASLSASVGETVTITCRASDNIYSYLAWYQQKQGQSPQLLVYNAKTLAEGVPSRFSGSGSVTQFSLKIISLQPEDFGTYYCQHHFGTPRTFGGGTKLEIKR ... 0.61 OD450
2. F1.83.6 human-murine chimeric antibody (antibody, human IgG1, kappa, V domains shown) VH: QVQLQQSGPELVKPGASVKISCKASGYAFSSSWMNWVKQRPGKGLEWIGRIYPGDGDTNYNGRFKGKATLTVDKSSSTAYMQLSSLTSEDSAVYFCARGGVFTMALDHWGQGTTLTVSS VL: DIQMTQSPSSLSASLGGKVTITCKASQDINKYIAWYQHKPGKGPRLLIHYTSTLQPGIPSRFSGSGSGRDYSFSISNLEPEDIATYYCLQYDNLFTFGGGTKLEIKR ... 0.4 OD450
3. F1.153.1 human-murine chimeric antibody (antibody, human IgG1, kappa, V domains shown) VH: QIQLVQSGPELKKPGETVKISCKASGYTFTTAGMQWVQKMPGKGFKWIGWINTHSGEPQYAEDFKGRFAFSLETSASTAYLQISNLKNEDTATYFCARSFYYHGSSFFYFDYWGQGTTLTVSS VL: DIVMTQSQKFMSTTVGDRVSITCKASQNVGTAVAWYQQKPGQSPKLLIYSASNRYTGVPDRFTGSGSGADFTLTISNMQSEDLADYFCQQYSRYPLTFGAGTKLELKR ... 0.64 OD450
4. F2.92.1 human-murine chimeric antibody (antibody, human IgG1, kappa, V domains shown) VH: QVQLQQSGAELVRPGASVKLSCKASGYIFSDYEIHWVKQTPVHGLECIGAVDPETGGTAYNQKFKGKATLTADKSSSTAYMELRSLTSEDSAVYFCTRFYSFAYWGQGTLVTVST VL: DVVMTQTPLSLPVSLGDQGSISCRSSQSLVHSNGNTYLQWYLQKPGQSPKLLIYKVSNRFSGVPDRFSGSGSGTDFTLKISRVEAEDLGVYFCCQSTHVLPTFGGGTKLEIKR ... 1.23 OD450
5. F2.55.11 human-murine chimeric antibody (antibody, human IgG1, kappa, V domains shown) VH: EVKLVESGGGLVKPGGSLKLSCAASGLTFSTCTMSWVRQTPAKRLEWVATISSGGGNTYYPDSVKGRFTISRDNARNTLYLQMSSLRSEDTAMYYCVRLYYDGSPYAMDYWGQGTSVTVSS VL: DIQMTQTTSSLSASLGDRVTISCRASQDISNHLNWYQQKPDGTVKLLIYYTSRLHSGVPSRFSGSGSGTDYSLTISNLEQEDIATYFCQQDSKPPPTFGSGTKLEIKR ... 1.57 OD450
6. F1.120.16 human-murine chimeric antibody (antibody, human IgG1, kappa, V domains shown) VH: EFQLQQSGPELVKPGASVKISCKASGYSFTDYNMNWVKQSNGKSLEWIGLIHPKFSVTSYNRKFKGKATLTVDQSSSTAYMQLNSLTSEDSAVYYCARWAGDYFDYWGQGTTLTVSS VL: DIVLTQSPATLSVTPGDSVSLSCRASQSISNNLHWYQQKSHESPRLLIKYASQSISGIPSRFSGSGSGTDFTLTINSVETEDFGMYFCQQSNSWPQTFGGGTKLEIKR ... 0.56 OD450
7. F3.81.19 human-murine chimeric antibody (antibody, human IgG1, kappa, V domains shown) VH: QVQLQQSGAELVRPGASVKLSCKASGYTFTDYEMHWVKQTPVHGLEWIGTIDPETGNTAYNQKFKGKATLTADKSSSTAYMELRSLTSEDSAVYYCTRPYSLTYWGQGTLVTVSA VL: DVLLTQTPLSLPVSLGDQASISCRSSQSFVHSNGDTYLQWYLQKPGQSPKLLIYKVSNRFSGVPDRFSGSGSGTDFTLKISRVEAEDLGVYYCFQGSHVPYTFGSGTKLEIKR ... 0.87 OD450
8. F1.115.8 human-murine chimeric antibody (antibody, human IgG1, kappa, V domains shown) VH: EVQLQQSGPELVKPGASVKMSCKASGYTFTEYYMHWVKQSHGKSLEWIGYIYPNNGGNGYNQKFKGKATLTVDKSSSTAYMGLRSLTSEDSAVYYCVRGYYSNWYFDVWGTGTTVTVSS VL: DVLMTQTPLSLPVSLGDQASISCRSSQSIVHSNGKTYLEWYLQKPGQSPKLLIYKVSNRFSGVPDRFSGSGSGTDFTLKISRVEAEDLGVYYCFQGSHVPFTFGSGTKLEIKR ... 0.83 OD450
9. F4.21.16 human-murine chimeric antibody (antibody, human IgG1, kappa, V domains shown) VH: DVQLQESGPGLVKPSQSLSLTCSVTGYSITSGYYWNWIRQFPGNKLEWMGYISYDVTVNYNPSLKNRISITRDTSKNQFFLKLNSVTTEDTATYYCATITSVASMDHWGQGTSVTVSS VL: DILMTQTPLSLPVSLGDQASISCRSSQNIVHRNGNTYLEWYLQKPGQSPKLLLYKVSNRFSGVPDRFSGSGSGTDFTLKISRVEAEDLGIYYCFQGSHFPFTFGSGTKLEIKR ... 0.46 OD450
10. F1.9.19 human-murine chimeric antibody (antibody, human IgG1, kappa, V domains shown) VH: DVQLQESGPGLVKPSQSLSLTCSVTGYSITSGYYWNWIRQFPGNRLEWMAYISYDGINNYNPSLKNRISIARDTSTNQFFLKLNSVTSEDTATYYCATTTEVALFDHWGQGTTLTVSS VL: DVLLTQTPLSLPVSLGDQASISCRSSQNIVHGNGNTYLEWFLQKPGQSPKLLIYKVSNRFSGVPDRFSGSGSGTDFTLKISRVEAEDLGLYYCFQASHVPWTFGGGTKLEIKR ... 0.58 OD450
